# System: MDA-MB-231 cells
# experimental-protocol: Continuous exposure clonogenic assay
# Format: cell-based
# run-conditions: Homo sapiens, MDA-MB-231, read-out: In vitro data (IC50) MDA-MB-231
# Experimental: MDA-MB-231 cells were plated at 3000 cells per well in two separate 6-well plates; PC-3 and SK-MEL-28 cells were plated at 2000 cells per well in 2 separate plates. […] Cell growth is monitored and when cells in the “0” (control) wells had formed colonies but were not confluent, usually 7 days for these cell lines, the supernatant was removed by aspiration. […] IC50 values were then calculated from the data.
pIC50: −log10 of the molar value.
Some compounds, each annotated with its measured pIC50.
recorded-metric: pIC50

- smiles-code: "C/C=C1\\C[C@H]2C=Nc3cc(OCc4cc(OCCCC(=O)OC)cc(COc5cc6c(cc5OC)C(=O)N5C/C(=C/C)C[C@H]5C=N6)n4)c(OC)cc3C(=O)N2C1"
  target-system: "MDA-MB-231 cells"
  reported-measurement: 11.77
- smiles-code: "C/C=C1\\C[C@H]2C=Nc3cc(OCc4cc(COc5cc6c(cc5OC)C(=O)N5C/C(=C/C)C[C@H]5C=N6)cc(OCCOCCOCCOCCC(=O)OC)c4)c(OC)cc3C(=O)N2C1"
  target-system: "MDA-MB-231 cells"
  reported-measurement: 10.80
- smiles-code: "C/C=C1\\C[C@H]2C=Nc3cc(OCc4cc(COc5cc6c(cc5OC)C(=O)N5C/C(=C/C)C[C@H]5C=N6)cc(OCCN(C)C(=O)CCC(=O)OC)c4)c(OC)cc3C(=O)N2C1"
  target-system: "MDA-MB-231 cells"
  reported-measurement: 11.05
- smiles-code: "C/C=C1\\C[C@H]2C=Nc3cc(OCc4cc(OCCOCCOCCOCCC(=O)OC)cc(COc5cc6c(cc5OC)C(=O)N5C/C(=C/C)C[C@H]5C=N6)n4)c(OC)cc3C(=O)N2C1"
  target-system: "MDA-MB-231 cells"
  reported-measurement: 11.10
- smiles-code: "C/C=C1\\C[C@H]2C=Nc3cc(OCc4cc(C#CCCCC(=O)OC)cc(COc5cc6c(cc5OC)C(=O)N5C/C(=C/C)C[C@H]5C=N6)c4)c(OC)cc3C(=O)N2C1"
  target-system: "MDA-MB-231 cells"
  reported-measurement: 10.92
